System: B. thuringiensis CIP 104676
Experiment: Antibacterial activity (MIC)
Format: cell-based
Details: Bacillus thuringiensis, CIP104676; B. thuringiensis CIP 104676; read-out: MIC
Would you mind telling me the reported MIC of each entry?
Unit µg/mL implied. Number only.

Request the reported MIC associated with O=C(O)c1cn(C2CC2)c2cc(N3CCNCC3)c(F)cc2c1=O [Ciprofloxacin, reference compound]
0.156

Field request: MIC | item: `Cl.O=C(O)c1cn(C2CC2)c2cc(N3CCN(c4ccnc5cc(C(F)(F)F)ccc45)CC3)c(F)cc2c1=O`
0.625

Need MIC of `Cl.O=C(O)c1cn(C2CC2)c2cc(N3CCN(c4ccnc5c(Cl)cccc45)CC3)c(F)cc2c1=O` , thanks.
0.156

For the molecule `Cl.O=C(O)c1cn(C2CC2)c2cc(N3CCN(CCNc4ccnc5cc(Cl)ccc45)CC3)c(F)cc2c1=O` , what MIC is on record?
0.625

====

Test system: Staphylococcus aureus MSSA CIP 4.83
Assay: Antibacterial activity (MIC/MBC)
Assay type: cell-based
Details: Staphylococcus aureus; S. aureus MSSA CIP 4.83; read-out: MIC
Returns: string. Value is true if measured MIC is below 0.02 µg/mL, and false if it is greater than or equal to it.

Item CC[C@@H]1OC(=O)[C@H](C)[C@H](OC2CC(C)(OC)C(O)C(C)O2)[C@@H](C)[C@@H](OC2OC(C)CC(N(C)C)C2O)[C@](C)(O)C[C@@H](C)/C(=N\OCCCNc2ccnc3cc(Cl)ccc23)[C@@H](C)[C@H](O)[C@]1(C)O (some centres unmarked) : MIC beneath 0.02 µg/mL, strictly?
false

Bench note: check whether CN[C@H](CC(C)C)C(=O)N[C@H]1C(=O)N[C@@H](CC(N)=O)C(=O)N[C@H]2C(=O)N[C@H]3C(=O)N[C@H](C(=O)N[C@H](C(=O)O)c4cc(O)cc(O)c4-c4cc3ccc4O)[C@H](O)c3ccc(c(Cl)c3)Oc3cc2cc(c3OC2OC(CO)C(O)C(O)C2OC2CC(C)(NCCCCNc3ccnc4cc(Cl)ccc34)C(O)C(C)O2)Oc2ccc(cc2Cl)[C@H]1O (some centres unmarked) shows MIC below 0.02 µg/mL
false

Given the entry `Cl.O=C(O)c1cn(C2CC2)c2cc(N3CCN(CCNc4ccnc5cc(Cl)ccc45)CC3)c(F)cc2c1=O` , would its reported MIC be below 0.02 µg/mL?
false

# TODO verify MIC < 0.02 µg/mL strictly for this compound: `CC(C)(C)C(=O)OCOC(=O)[C@@H]1N2C(=O)[C@@H](NC(=O)C3CCN(c4ccnc5cc(Cl)ccc45)CC3)[C@H]2SC1(C)C`
true

====

I'd be grateful if you could share measured MIC for these entries.
Test system: Staphylococcus aureus MSSA CIP 4.83
Assay: Antibacterial activity (MIC/MBC)
Format: cell-based
Details: Staphylococcus aureus; S. aureus MSSA CIP 4.83; read-out: MIC

Report MIC for CC(=O)OCC1=C(C(=O)O)N2C(=O)[C@@H](NC(=O)CCNc3ccnc4cc(Cl)ccc34)[C@H]2SC1 [PA 1037] please.
0.39 µg/mL

I would be grateful if you could share the reported MIC for CO/N=C(\C(=O)N[C@@H]1C(=O)N2C(C(=O)O)=C(CSc3nc(=O)c(=O)[nH]n3C)CS[C@H]12)c1csc(N)n1 [Ceftriaxone, reference compound] .
0.2 µg/mL

Suppose we examine the compound CC[C@H]1OC(=O)[C@H](C)[C@@H](O[C@H]2C[C@@](C)(OC)[C@@H](O)[C@H](C)O2)[C@H](C)[C@@H](O[C@@H]2O[C@H](C)C[C@H](N(C)C)[C@H]2O)[C@](C)(O)C[C@@H](C)C(=O)[C@H](C)[C@@H](O)[C@]1(C)O [Erythromycin, reference compound] ; what MIC value has been reported?
0.156 µg/mL

Give its MIC value. Item: O=C(O)c1cn(C2CC2)c2cc(N3CCNCC3)c(F)cc2c1=O [Ciprofloxacin, reference compound]
0.312 µg/mL

Using the record for CC(=O)OCC1=C(C(=O)O)N2C(=O)[C@@H](NC(=O)C3CCN(c4ccnc5cc(Cl)ccc45)CC3)[C@H]2SC1.Cl [PA 1074] , report its MIC.
0.78 µg/mL
